Molecular target: UPR counterscreen luciferase reporter, luminescence
Test: luciferase reporter activation, UPR counterscreen line – cell-based, luminescence, counter-screen for adaptive UPR activator project, dose response (AID 489027)
Calls of active or inactive are those of the source. The rule behind the calls is not given here.
Possible outcomes: active, inactive

compound	label-value
CCOC(=O)c1c(NC(=O)/C=C/C(=O)O)sc(C)c1-c1ccc(C(C)(C)C)cc1	inactive
Cc1ccc2c(n1)sc1c(-c3ccc(Br)cc3)c(C#N)c(N)nc12	inactive
Oc1ccc(/C=N/Nc2nc(N3CCCC3)nc(N3CCCC3)n2)cc1O	active
Oc1cccc2ccc(/C=C/c3ccc(Br)s3)nc12	inactive
CC(C)=CCCC1(C)C=Cc2c(ccc3c2[nH]c2cc(O)c(C)cc23)O1 (stereo not given)	active
COc1ccc(Br)cc1-c1nc2c(c(=O)[nH]c(=O)n2Cc2ccccc2)n1C	inactive
CCCCCCCC(=O)Nc1ccc(C(=O)N/N=C/c2cccc([N+](=O)[O-])c2)cc1	active
O=c1cc(CN2CCN(c3ccc(F)cc3)CC2)c2cc3c(cc2o1)CCCC3	active
C/C(=N/NC(=O)c1ccc(C)s1)c1cccc(NC(=O)COc2ccc(Cl)cc2C)c1	active
COc1ccc(-c2ccc3c(c2)S(=O)(=O)c2cccc(C(=O)NCCOc4ccccc4Cl)c2C3=O)cc1OC	inactive

----------
Target: UPR counterscreen luciferase reporter, luminescence
Assay: luciferase reporter activation, UPR counterscreen line – cell-based, luminescence, counter-screen for adaptive UPR activator project, dose response (AID 489027)
Calls of active or inactive are those of the source. How the calls were made is not given here.
Possible outcomes: label 1 = active, label 0 = inactive

compound	label-value
CC1CCC(C(C)C)C(OC(=O)Cn2c(-c3ccc(Br)cc3)[n+](C)c3ccccc32)C1 (centres undefined)	label 1
COc1ccc(NC(=O)CSc2nc3ccc(Nc4nc(N5CCOCC5)nc(N5CCOCC5)n4)cc3s2)cc1	label 0
CN(C)S(=O)(=O)c1ccc(N2CCCC2)c(C(=O)Nc2nc3ccccc3s2)c1	label 1
Cc1ccc(-c2nnc(-c3ccc(NC(=O)c4cccs4)cc3)o2)cc1	label 1
O=C(N/N=C/C(Br)=C\c1ccccc1)c1n[nH]c2c1CCC2	label 0
CCOC(=O)C(=CNc1nc(-c2ccccc2)c(C(=O)Nc2ccc(-c3ccccc3)cc2)s1)C(=O)OCC	label 0
Cc1cc(C)c2c(c1)/C(=c1/sc3n(c1=O)CN(c1ccccc1)CN=3)C(=O)N2	label 1
Cc1ccc2nc(N(CCCN(C)C)C(=O)c3ccc(S(=O)(=O)N4CCc5ccccc5C4)cc3)sc2c1	label 1
CCCNC(=O)/C(C#N)=C1\N=C(NC(=O)c2cccs2)c2ccccc21	label 0
COc1ccc(-c2nnc(SCC(=O)Nc3sc4c(c3C#N)CCCC4)n2-c2ccccc2)cc1	label 1
Brc1ccc2c(c1)C(c1ccc(N3CCOCC3)cc1)=NNC(c1cccs1)=N2	label 0
O=C(CSc1nc2ccc(Nc3nc(N4CCOCC4)nc(N4CCOCC4)n3)cc2s1)Nc1ccccc1F	label 0
Cc1ccnc(N/C=C(\C#N)c2nc(-c3cccc(Br)c3)cs2)c1	label 1
COc1ccc(-c2nn(C)c(=O)c3ccccc23)cc1NC(=O)Cn1nc(C)c2ccccc2c1=O	label 0

----------
Target: UPR counterscreen luciferase reporter, luminescence
Assay: luciferase reporter activation, UPR counterscreen line – cell-based, luminescence, counter-screen for adaptive UPR activator project, dose response (AID 489027)
Activity calls are given as the source filed them. The rule behind the calls is not given here.
Possible outcomes: True = active, False = inactive

molecule	label-value
COc1ccc(C(CCNC(C)c2ccccc2)c2ccc(F)cc2)cc1 (stereo unspecified)	False
O=C(Nc1nc2ccc(Cl)cc2s1)c1ccc(N2CCCCC2)c([N+](=O)[O-])c1	False
CCCNC(=O)c1ccc2c(=O)c(O)c(-c3ccc(OC)cc3)[nH]c2c1	False
Brc1cc(Br)c2ncnc(N3CCCCC3)c2c1	False
O=C(Nc1ccc(O)c(-c2nc3ccccc3s2)c1)c1cc(=O)c2ccccc2o1	False
O=C(Nc1ccc(SC(F)F)cc1)c1cc(-c2ccncc2)nc2ccccc12	False
CN(C)CC(CCC(CN(C)C)C(O)(c1ccccc1)c1ccccc1)C(O)(c1ccccc1)c1ccccc1 (stereo unspecified)	True
O=C(CC1C[C@H](C(=O)N2CCCCC2)[C@@]2(CCc3ccccc3)c3[nH]c4ccccc4c3CCN2C1=O)NCCC1=CCCCC1 (stereo partly specified)	False
COc1ccccc1C(=O)NC(=S)NNC(=O)c1sc2ccccc2c1Cl	False
CC(C)N(C(=O)[C@H]1C[C@H](CC(=O)NCc2cccc(C(F)(F)F)c2)C(=O)N2CCc3c([nH]c4ccc(Cl)cc34)[C@]12C)C(C)C	False
O=Cc1cc2ccccc2nc1SCc1ccc(Cl)c(Cl)c1	False

----------
Target: UPR counterscreen luciferase reporter, luminescence
Assay: luciferase reporter activation, UPR counterscreen line – cell-based, luminescence, counter-screen for adaptive UPR activator project, dose response (AID 489027)
The source made the active and inactive calls. No rule for the calls is given here.
reported-endpoint: EC50

smiles-entry	observed-result
CCc1cccc(CC)c1NC(=O)/C(C#N)=C/c1ccccc1C(F)(F)F	> 80 µM (inactive)
COc1ccc(CNC(=O)/C(C#N)=C/c2cccc(OC)c2OC)cc1	inactive
CCc1nc(C)cn1S(=O)(=O)c1cc([N+](=O)[O-])ccc1Cl	> 80 µM (inactive)
Cc1ccc2c(=O)[nH]c(Nc3nc(C)cc(-c4ccccc4)n3)nc2c1	> 80 µM (inactive)
Cc1cc(NC(=O)c2cncc(Br)c2)ccc1NC(=O)c1cc2ccccc2o1	> 80 µM (inactive)
Cc1ccc2nc(Nc3nc(C)cc(-c4ccccc4)n3)[nH]c(=O)c2c1	> 80 µM (inactive)
C=CCOc1ccc2cccc(/C=N/NC(=O)c3cc4cc([N+](=O)[O-])ccc4s3)c2c1	inactive
